Test system: LOX IMVI
Assay: NCI tumour cell line growth inhibition, 48 h
Activity calls are given as the source filed them. Cut-off read from the data, not from the text of the source: active = GI50 up to about 1.1 µM and inactive = higher.
measured.attribute: GI50

Q: Look up GI50 of `OC(C#Cc1ccccc1)(c1ccccc1)c1ccccc1` and report it.
Ans: 19 µM (inactive)

Q: Fill in reported GI50 for this entry: `O=C(COc1cc(=O)oc2ccccc12)c1ccccc1`
Ans: 41.1 µM (inactive)

Q: Given `C[N+](C)(N)Cc1nc(-c2ccc(Cl)cc2)no1` , respond with its GI50.
Ans: > 100 µM (inactive)

Q: Supply measured GI50 of O=C1[C@H]2ON(c3ccccc3)C(c3ccc([N+](=O)[O-])cc3)[C@H]2C(=O)N1c1ccc(Cc2ccc(N3C(=O)[C@@H]4ON(c5ccccc5)C(c5ccc([N+](=O)[O-])cc5)[C@@H]4C3=O)cc2)cc1 (stereo partly drawn) in your reply.
Ans: > 100 µM (inactive)

Q: Please give the documented GI50 of CC1(O)CC23CC(O)C4(O)C(CC(O)C4(C)C)C(C)(O)C2CCC1C3O (stereo not drawn)
Ans: > 100 µM (inactive)

Q: Quote GI50 reported for CCCCCCCCCCCCCCCCCCOCC(O)CO (stereo not drawn) please.
Ans: > 21.9 µM (inactive)

Q: Provide GI50 value for the following molecule: CCCCCCCCCCCCCCCCCCOCC(CO[PH](=O)O)OCCCCCCCCCCCCCCCCCC (stereo not drawn)
Ans: > 50 µM (inactive)

Q: Supply recorded GI50 for `NC(=O)N/N=C\c1ccccc1OCc1cccc(COc2ccccc2/C=N\NC(N)=O)n1` here.
Ans: 46.1 µM (inactive)

Q: Specify measured GI50 for `CCOC(=O)c1ccn2c(c1)c(C#N)c1nc3ccccc3nc12` .
Ans: 29.2 µM (inactive)

Q: Using known records, supply GI50 for `COc1ccc(NC(=O)CC(=O)n2nc(-c3ccccc3)c(/N=N/c3ccc(C)cc3)c2-c2ccccc2)cc1`
Ans: 38.8 µM (inactive)

Q: Using known records, supply GI50 for `O=c1c2cccnc2[nH]c2ccc3[nH]ncc3c12`
Ans: 2.91 µM (inactive)

Q: Supply reported GI50 belonging to this molecule: CN1C(=O)C2(C=CC(O)CC2)c2ccccc21 (stereo not drawn)
Ans: > 100 µM (inactive)

Q: # return recorded GI50 for entry `CC1(C)C=C(/C=N/Nc2ccc([N+](=O)[O-])cc2)C(C#N)=C(O)C1(C#N)C#N`
Ans: > 100 µM (inactive)

* * *

Please respond with reported GI50 for every item in the list.
Test system: OVCAR-4
Assay: NCI tumour cell line growth inhibition, 48 h
Active and inactive are the calls of the source. No stated cut-off is given here; in the data, active = GI50 up to about 1.1 µM and inactive = higher.

Q: # lookup: OVCAR-4 GI50, key = CC(CC(N)C(=O)O)C(=O)O (stereo unspecified)
Ans: > 100 µM (inactive)

Q: Lab note: OVCAR-4 assay, enter GI50 for `Cc1ccc(/N=N/C(=NNC(=O)c2ccc(C)cc2)c2ccc(N(C)C)cc2)cc1` here
Ans: 18.5 µM (inactive)

Q: Determine reported GI50 for `C(=N\c1cc2cc(Sc3ccccc3)ccc2[nH]1)/c1ccccc1` ; test system: OVCAR-4.
Ans: > 12.5 µM (inactive)

Q: State GI50 (OVCAR-4) of CC1(O)CC23CC(O)C4(O)C(CC(O)C4(C)C)C(C)(O)C2CCC1C3O (stereo unspecified) .
Ans: > 100 µM (inactive)

Q: # return GI50 for COC(=O)C(COC(=O)/C=C/c1ccc(OC(C)=O)c(OC(C)=O)c1)NC(=O)/C=C/c1ccc(OC(C)=O)c(OC(C)=O)c1 (stereo unspecified) , test system: OVCAR-4
Ans: 20.7 µM (inactive)

Q: Name the recorded GI50 of Nc1ccccc1C(=O)C(Br)C(Br)c1ccc2c(c1)OCO2 (stereo unspecified) , assay system OVCAR-4.
Ans: 27.4 µM (inactive)

Q: Answer briefly: GI50 recorded on OVCAR-4 for `O=c1c2cc(O)ccc2n2nnc3ccc(NCCNCCO)c1c32`
Ans: 5.09 µM (inactive)

Q: Provide GI50, recorded with OVCAR-4, of CCC1C(NC(=O)OC)C(=O)N1[C@@H](C)c1ccccc1 (stereo partly specified)
Ans: > 100 µM (inactive)

Q: Report GI50 under test system OVCAR-4 for CCOC(=O)C1C(=O)c2cccc(OC)c2C2COC(=O)N12 (stereo unspecified) .
Ans: > 100 µM (inactive)

Q: GET GI50 | system: OVCAR-4 | item: `CCc1cc2c(c3c1CCCC3=O)CC1(C2)Cc2cc(CC)c3c(c2C1)C(=O)CCC3`
Ans: 73.6 µM (inactive)

Q: GET GI50 | system: OVCAR-4 | item: `Cn1c(NN)nc(-c2ccc([N+](=O)[O-])cc2)c(C#N)c1=O`
Ans: 15.6 µM (inactive)

Q: System OVCAR-4. Read-out GI50. Item `O=C(NC(=O)c1cn(CCN2CCNCC2)c(=O)[nH]c1=O)OCc1ccccc1` . Report value.
Ans: > 100 µM (inactive)

Q: Name the recorded GI50 of `COc1ccc(C(=C(Cl)c2ccccc2)c2ccc(OC)cc2)cc1` , assay system OVCAR-4.
Ans: > 100 µM (inactive)

Q: Determine reported GI50 for `N#Cc1c(-c2ccc(Cl)cc2)cc(-c2ccc(Nc3ccnc4cc(Cl)ccc34)cc2)nc1N` ; test system: OVCAR-4.
Ans: 38.2 µM (inactive)

Q: Please look at NC(=O)C(N)Cc1ccc(O)cn1 (stereo unspecified) and tell me its recorded GI50 on OVCAR-4.
Ans: > 100 µM (inactive)

Q: With OVCAR-4 as the test system, provide measured GI50 for this compound: C=[N+](CNC(=O)CNC(=O)C(Cc1ccccc1)NC(=O)OC(C)(C)C)C(=O)CNC(=O)C(Cc1ccccc1)NC(=O)OC(C)(C)C (stereo unspecified)
Ans: > 100 µM (inactive)

Q: Lab note: OVCAR-4 assay, enter GI50 for `[O-][n+]1c2cc(CBr)c(CBr)cc2[n+]([O-])c2c(O)cccc21` here
Ans: 1.8 µM (inactive)

Q: Fill in: GI50 on OVCAR-4, entry `CCOC(=O)c1ccn2c(c1)c(C#N)c1nc3ccccc3nc12`
Ans: 91 µM (inactive)

Q: Using OVCAR-4 as the test system, report measured GI50 of CSc1ccc2c(cc1=O)C(NC(=O)c1ccccc1)CCc1cc(O)c(O)c(O)c1-2 (stereo unspecified) .
Ans: 16.3 µM (inactive)

Q: Under OVCAR-4: report GI50 of `CSc1nc2c3ccccc3ccn2c1C(=O)N/N=C/c1ccccc1` .
Ans: 14.1 µM (inactive)

Q: System OVCAR-4. Read-out GI50. Item `[N-]=[N+]=NC1=C(C(=O)c2ccccc2)C(=O)c2cccc3cccc1c23` . Report value.
Ans: 39.5 µM (inactive)

* * *

System: SF-268
Experiment: NCI tumour cell line growth inhibition, 48 h
The source made the active and inactive calls. No stated cut-off is given here; in the data, active = GI50 up to about 1.1 µM and inactive = higher. Non-standard residues stand in square brackets, D forms with d. Residues, ends and D or L forms follow the SMILES beside them. ΔPro = O=C(O)[CH]1C=CCN1
Please provide measured GI50 for the entries that follow.

Q: Report GI50 from SF-268 testing of `Cc1ccc(C(=N)c2ccccc2Cc2cccc3ccccc23)c2ccccc12`
Ans: > 100 µM (inactive)

Q: Fetch value of GI50 on SF-268 for Cc1cc(-c2nc3cc(F)ccc3s2)ccc1NC(=O)C(C)N (stereo not drawn) .
Ans: 4.53 µM (inactive)

Q: Find the measured GI50 of O=C(O)C1C=CCN1C(=O)C1C=CCN1C(=O)C1C=CCN1 (stereo not drawn) (H-[ΔPro]-[ΔPro]-[ΔPro]-OH; configuration not given here) with SF-268 as test system.
Ans: > 100 µM (inactive)

Q: Provide the reported GI50 (system: SF-268) for `C[C@]12C=CC(=O)C=C1CC[C@@H]1[C@@H]2CC[C@@]2(C)[C@H]1CC[C@]2(O)C(N)=O`
Ans: > 100 µM (inactive)

Q: Identify measured GI50 obtained with SF-268 for `NN/C(=N\S(=O)(=O)c1cc2ccccc2o1)Nc1ccc(Cl)cc1` .
Ans: 33.9 µM (inactive)

Q: Jot down GI50 (SF-268) of `Cc1ccccc1NC(=O)c1c(C)oc2c1C(=O)c1ccccc1C2=O` .
Ans: 31.8 µM (inactive)

Q: Enter GI50 (test system SF-268) for CC1(C)COC(C23C4C5C2C2C3C4C52I)=N1 (stereo not drawn)
Ans: > 100 µM (inactive)

Q: Find GI50 for `CC(C)(C)c1cc(COc2cc(COc3ccc(-c4c5c(nc6c4CCc4ccc(-c7c8ccccc8nc8ccccc78)cc4-6)-c4cc(-c6c7ccccc7nc7ccccc67)ccc4CC5)cc3)cc(OCc3cc(C(C)(C)C)cc(C(C)(C)C)c3)c2)cc(C(C)(C)C)c1` on SF-268 and write it down.
Ans: > 100 µM (inactive)
